Where these numbers come from: the supplement of paper PMC11908140

B1: library; numbered along this chain (parent)
chain: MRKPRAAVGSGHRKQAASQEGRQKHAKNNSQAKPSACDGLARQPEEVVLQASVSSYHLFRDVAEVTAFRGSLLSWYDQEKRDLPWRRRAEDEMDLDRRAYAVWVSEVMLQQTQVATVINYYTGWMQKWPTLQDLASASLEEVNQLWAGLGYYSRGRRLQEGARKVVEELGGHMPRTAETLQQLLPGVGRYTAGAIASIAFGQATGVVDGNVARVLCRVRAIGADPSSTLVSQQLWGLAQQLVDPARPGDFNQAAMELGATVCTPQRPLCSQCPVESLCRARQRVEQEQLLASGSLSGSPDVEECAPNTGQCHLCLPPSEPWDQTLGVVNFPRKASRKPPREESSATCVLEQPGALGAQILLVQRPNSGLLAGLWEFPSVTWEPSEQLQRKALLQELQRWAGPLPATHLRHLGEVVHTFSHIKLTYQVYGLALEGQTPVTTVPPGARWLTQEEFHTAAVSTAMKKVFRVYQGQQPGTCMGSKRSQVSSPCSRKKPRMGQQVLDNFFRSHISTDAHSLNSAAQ

Variants of: B1
Experiment: 8OG:A repair function score (normalized; synonymous = 0, nonsense = -1) (normalized log-likelihood score); higher = more repair activity (WT-like);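 note: cells sorted at 72 h after reporter transfection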
Settings: with 8OG:A DNA repair reporter (GFP) in HEK-293 MUTYH KO cells
# 8OG:A repair function score per entry
Provide a numeric answer; units are not to be included.

Use these answered entries as a reference point.
- variant: "C347K"
  test_value: -1.08
- variant: "M108T"
  test_value: -0.981
- variant: "E79A"
  test_value: 0.00477
- variant: "P299H"
  test_value: 0.0118
- variant: "R86H"
  test_value: -1.85
- variant: "L370V"
  test_value: -0.484

Form field 8OG:A repair function score, entry T191I : -0.0338

Form field 8OG:A repair function score, entry Q394N : 0.483

Form field 8OG:A repair function score, entry Y190H : -0.198

Form field 8OG:A repair function score, entry A212L : -0.264

Form field 8OG:A repair function score, entry G150N : -1.15

Form field 8OG:A repair function score, entry Y428F : -0.153

Form field 8OG:A repair function score, entry T308V : -0.00366

Form field 8OG:A repair function score, entry L355M : -0.0213

Form field 8OG:A repair function score, entry P316M : -0.238

Form field 8OG:A repair function score, entry K422W : -0.317
